- Assayed Target: UniProt Q8NER1
- Sequence (Q8NER1 whole entry): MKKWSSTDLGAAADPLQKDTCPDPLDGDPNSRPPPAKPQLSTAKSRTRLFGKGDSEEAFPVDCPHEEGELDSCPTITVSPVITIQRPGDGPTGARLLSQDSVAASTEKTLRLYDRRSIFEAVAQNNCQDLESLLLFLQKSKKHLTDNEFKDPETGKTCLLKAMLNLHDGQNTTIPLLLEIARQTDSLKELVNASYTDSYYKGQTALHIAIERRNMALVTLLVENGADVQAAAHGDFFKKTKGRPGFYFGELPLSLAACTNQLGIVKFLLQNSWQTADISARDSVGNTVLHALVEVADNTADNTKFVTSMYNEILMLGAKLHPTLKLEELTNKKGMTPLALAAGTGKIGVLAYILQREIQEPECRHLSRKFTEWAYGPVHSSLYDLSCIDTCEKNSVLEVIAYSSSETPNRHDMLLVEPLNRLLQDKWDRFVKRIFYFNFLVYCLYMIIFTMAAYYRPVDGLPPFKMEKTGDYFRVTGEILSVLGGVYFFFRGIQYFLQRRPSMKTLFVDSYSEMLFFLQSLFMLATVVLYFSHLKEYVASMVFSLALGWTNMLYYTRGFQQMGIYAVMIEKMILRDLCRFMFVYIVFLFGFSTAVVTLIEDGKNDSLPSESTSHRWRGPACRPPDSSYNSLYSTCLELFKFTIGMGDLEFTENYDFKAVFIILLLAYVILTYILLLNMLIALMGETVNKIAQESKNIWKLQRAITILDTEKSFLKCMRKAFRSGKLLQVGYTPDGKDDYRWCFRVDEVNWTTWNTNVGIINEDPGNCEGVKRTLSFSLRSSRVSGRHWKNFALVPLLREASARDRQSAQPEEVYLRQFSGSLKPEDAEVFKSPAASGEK
- Experimental Protocol: TRP Family FLIPR Assay, TRPV1
- Condition Notes: antagonist mode; activated with capsaicin 0.1 μM; HEK293 cells; 0.003-10 μM; read-out: IC50 hTRPV1
pIC50: −log10 of the molar value.

- Molecule: "CC(C)(O)c1cnc(N2C[C@@]3(CC[C@@H](F)[C@](C)(Cn4cnc5ccc(C#N)cc54)C3)OC2=O)cn1 (single isomer, unassigned)"
  pIC50: "< 5.00"

* * *

- Assayed Target: TRPC3 channels (Homo sapiens)
- Sequence (Q13507 whole entry): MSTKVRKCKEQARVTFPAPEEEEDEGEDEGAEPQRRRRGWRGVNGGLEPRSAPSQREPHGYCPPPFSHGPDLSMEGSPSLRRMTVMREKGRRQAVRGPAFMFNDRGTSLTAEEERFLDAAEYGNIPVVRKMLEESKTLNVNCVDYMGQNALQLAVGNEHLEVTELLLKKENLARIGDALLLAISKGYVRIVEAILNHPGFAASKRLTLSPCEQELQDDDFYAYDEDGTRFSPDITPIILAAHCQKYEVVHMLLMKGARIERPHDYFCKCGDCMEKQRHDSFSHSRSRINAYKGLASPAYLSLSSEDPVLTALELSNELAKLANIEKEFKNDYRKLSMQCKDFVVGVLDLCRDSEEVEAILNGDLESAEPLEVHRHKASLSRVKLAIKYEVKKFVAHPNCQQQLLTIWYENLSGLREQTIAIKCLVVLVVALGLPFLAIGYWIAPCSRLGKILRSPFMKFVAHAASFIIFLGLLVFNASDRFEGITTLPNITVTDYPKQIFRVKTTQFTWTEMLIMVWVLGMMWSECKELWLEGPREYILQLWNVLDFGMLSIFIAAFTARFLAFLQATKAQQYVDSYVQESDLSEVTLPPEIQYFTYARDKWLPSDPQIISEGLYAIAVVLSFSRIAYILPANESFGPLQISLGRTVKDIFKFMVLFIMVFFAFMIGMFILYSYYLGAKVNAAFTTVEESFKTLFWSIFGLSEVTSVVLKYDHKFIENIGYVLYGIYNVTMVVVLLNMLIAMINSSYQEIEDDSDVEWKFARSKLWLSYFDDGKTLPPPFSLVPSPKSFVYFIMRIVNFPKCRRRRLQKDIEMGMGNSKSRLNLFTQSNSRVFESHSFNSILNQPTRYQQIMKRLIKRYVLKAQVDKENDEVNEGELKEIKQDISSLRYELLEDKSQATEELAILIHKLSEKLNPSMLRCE
- Experimental Protocol: TRP Family FLIPR Assay, TRPC3
- Condition Notes: antagonist mode; activated with 15 μM GSK1702934A; HEK293 cells; 0.003-10 μM; read-out: IC50 hTRPC3

- Compound: "CC(C)(O)c1cnc(N2C[C@@]3(CC[C@@H](F)[C@](C)(Cn4cnc5ccc(C#N)cc54)C3)OC2=O)cn1 (single isomer, unassigned) [Example 5]"
  Assayed Target: "TRPC3 channels (Homo sapiens)"
  IC50: "> 10 µM"
